Target: RalB (Homo sapiens, UniProt P11234)
Construct: made in house; host or cells: E. coli BL21(DE3)
Sequence (P11234 12-185): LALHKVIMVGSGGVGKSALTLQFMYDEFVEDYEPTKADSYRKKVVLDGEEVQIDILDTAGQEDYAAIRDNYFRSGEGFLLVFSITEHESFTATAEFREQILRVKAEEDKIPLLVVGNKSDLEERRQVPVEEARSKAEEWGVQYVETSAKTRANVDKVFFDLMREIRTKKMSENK
Assay: Rgl2-mediated guanine nucleotide exchange assay (BODIPY-FL-GDP fluorescence), RalB wild-type
Format: biochemical
Details: IC50 at 24 h (μM) RalB WT, 24 h incubation at 4° C.
Property name: IC50 (µM)
Numeric answer only, unit µM assumed.

Field IC50 (entry CCc1cncc(NS(=O)(=O)c2ccc(S(=O)(=O)F)cc2)c1 [Compound 14] ) reads 91.4

Recorded result, COc1ncccc1NS(=O)(=O)c1ccc(S(=O)(=O)F)cc1 [Compound 2] , IC50: 23.1

Form field IC50, entry O=S(=O)(F)c1ccc(S(=O)(=O)Nc2ncccc2Cl)cc1 [Compound 4] : 41.7

Memo: COc1ccc(Cl)c(NS(=O)(=O)c2ccc(S(=O)(=O)F)cc2)n1 [Compound 23] , reported IC50: 127

According to the records, this compound CCc1ccc(NS(=O)(=O)c2ccc(S(=O)(=O)F)cc2)cn1 [Compound 13] displays IC50 of 164

Please fill in: IC50 reported for O=S(=O)(F)c1ccc(S(=O)(=O)Nc2cccc(F)n2)cc1 [Compound 6] = 51.5

Value of measured IC50 for the entry CCOc1cncc(NS(=O)(=O)c2ccc(S(=O)(=O)F)cc2)c1 [Compound 15] : 85.5

// field: IC50; key: O=S(=O)(F)c1ccc(S(=O)(=O)Nc2cncc(Cl)n2)cc1 [Compound 7] ; value = 49.4

For COc1cncc(NS(=O)(=O)c2ccc(S(=O)(=O)F)cc2)c1 [Compound 1] the compound record lists IC50 as 49.5
